System: CCRF-CEM leukemia
Measurement description: NCI-60 one-dose screen, 48 h
Condition notes: 10 µM unless noted
Compounds without any hit were thinned out: in the full panel of roughly 83,000, 20% have a hit. Calls of active or inactive are those of the source. Rule for the calls: active = growth percent below 10; inactive = the rest.
Reply using exactly one outcome from active, inactive

Below are worked cases with known answers.
compound=COc1ccc(C(=O)c2cc(C(=O)/C=C/c3c(Cl)cccc3Cl)c3cc(C)ccn23)cc1 label_value=inactive
compound=NS(=O)(=O)c1ccc(Nc2nc(SCC(=O)c3ccc(Cl)cc3)nc3ccccc23)cc1 label_value=inactive
compound=COc1cc(/C=C/C(=O)c2cc(OC)c(OC)c(OC)c2)ccc1OCc1ccc(F)cc1 label_value=active
compound="CN1C(=O)N(c2ccccc2)C2N=C(N/N=C/c3ccccc3)SC21 (stereo not given)" label_value=inactive
compound="CC(O)C(NC(=O)C1CCCN1C(=O)CNC(=O)C1CC(=O)NCC(=O)NC(Cc2c[nH]c3ccccc23)C(=O)NC(Cc2ccc(O)cc2)C(=O)NCC(=O)NC(CO)C(=O)NC(CCC(N)=O)C(=O)NC(Cc2c[nH]c3ccccc23)C(=O)N1)C(=O)NCC(=O)NC(CCC(N)=O)C(=O)NC(CCCNC(=N)N)C(=O)NC(CC(=O)O)C(=O)O (stereo not given)" label_value=inactive
compound=COc1ccc(-c2nc3ccc(-c4nnc(SCC(=O)Nc5ccc(C(=O)/C=C/c6ccc(Cl)cc6)cc5)o4)cc3[nH]2)cc1OC label_value=inactive

Data request: Record lookup: outcome of this test for CCOC(=O)c1c(Nc2ccccc2)nn2c(N)c(C#N)c(-c3ccc(Cl)cc3)nc12 ?
Data returned: inactive

Data request: Do the same for Clc1ccc2oc3c(NCCCn4ccnc4)c4ccccc4nc3c2c1 please
Data returned: inactive

Data request: Do the same for C#Cc1nc(C2=C(C)C(=O)/C(=N/OC(C)=O)C2)cs1 please
Data returned: inactive

Data request: Do the same for Nc1cc(-c2c[nH]c3ccccc23)nc2cc(-c3c[nH]c4ccccc34)nn12 please
Data returned: inactive

====

Test system: K-562 leukemia
Measurement description: NCI-60 one-dose screen, 48 h
Condition notes: 10 µM unless noted
Compounds without any hit were thinned out: in the full panel of roughly 83,000, 20% have a hit. Calls of active or inactive are those of the source. How the source made its calls: active means growth percent below 10; inactive means the rest.
Reply using exactly one outcome from 1.0 for active, 0.0 for inactive

compound="CCN1C(=S)N(CC)C2C1NN=C1SC(c3ccccc3)=CC(=O)N12 (configuration not stated)" label_value=0.0

Data request: Record lookup: outcome of this test for N#Cc1ccc(C(=O)CSc2nc(Nc3ccc(S(N)(=O)=O)cc3)c3ccccc3n2)cc1 ?
Data returned: 0.0

Data request: Do the same for O=C1Nc2ccccc2Oc2ccc(S(=O)(=O)CC3CO3)cc21 (configuration not stated) please
Data returned: 0.0

Data request: Do the same for Cc1cc(=O)oc2cc(OCCCOc3ccc(/C=C/C(=O)Nc4ccc(Cl)cc4)cc3)ccc12 please
Data returned: 0.0

Data request: Do the same for O=c1[nH]c2ccccc2cc1CSc1ccccc1Nc1nccc(-c2ccc(C(F)(F)F)cc2)n1 please
Data returned: 0.0

Data request: Do the same for O=C(CN1C(=O)/C(=C/c2ccccc2)SC1=S)N1CCOCC1 please
Data returned: 0.0

Data request: Do the same for CCOC(=O)c1c(NC(=O)c2cccc(C(F)(F)F)c2)sc2cc(O)ccc12 please
Data returned: 0.0

Data request: Do the same for Cc1[nH]nc2ncc(C#Cc3cncc(C(=O)Nc4ccc(CN5CCN(C)CC5)c(C(F)(F)F)c4)c3)cc12 please
Data returned: 1.0

Data request: Do the same for CC(=O)c1ccc(Nc2nc(SC(C)C)nc(-c3ccccc3)c2C#N)cc1 please
Data returned: 0.0

Data request: Do the same for COc1cccc(-c2nn(-c3ccccc3)cc2-c2ccnc(N3CCN(C(=O)Nc4ccc(F)cc4)CC3)c2)c1 please
Data returned: 0.0

Data request: Do the same for Nc1nc(N)c2c(n1)NC(c1ccc(F)cc1)CC(c1ccc(Nc3nc(NCCO)nc(Nc4ccc(Cl)cc4)n3)cc1)=N2 (configuration not stated) please
Data returned: 1.0

Data request: Do the same for C#C[C@]1(O)CC[C@H]2[C@@H]3CC=C4c5sc(-c6ccc(F)cn6)nc5CC[C@]4(C)[C@H]3CC[C@@]21C please
Data returned: 1.0

Data request: Do the same for CCOc1ccc([C@H]2C(C(=O)c3ccc(Cl)cc3)C3(N[C@@H]2c2ccccc2)C(=O)Nc2ccc(Br)cc23)cc1 (some centres not stated) please
Data returned: 0.0

Data request: Do the same for CN(C)CCCNc1c2ccc(Cl)cc2nc2c1oc1ccc(Cl)cc12 please
Data returned: 1.0
